- Assay Target: T1, recombinant human ROR1 extracellular domain (human, UniProt Q01973 30-406)
- T1 construct: biotinylated for the filter lifts; also called huROR1-ECD; human ROR1-ECD
- T1 sequence (Q01973 30-406 limits assumed): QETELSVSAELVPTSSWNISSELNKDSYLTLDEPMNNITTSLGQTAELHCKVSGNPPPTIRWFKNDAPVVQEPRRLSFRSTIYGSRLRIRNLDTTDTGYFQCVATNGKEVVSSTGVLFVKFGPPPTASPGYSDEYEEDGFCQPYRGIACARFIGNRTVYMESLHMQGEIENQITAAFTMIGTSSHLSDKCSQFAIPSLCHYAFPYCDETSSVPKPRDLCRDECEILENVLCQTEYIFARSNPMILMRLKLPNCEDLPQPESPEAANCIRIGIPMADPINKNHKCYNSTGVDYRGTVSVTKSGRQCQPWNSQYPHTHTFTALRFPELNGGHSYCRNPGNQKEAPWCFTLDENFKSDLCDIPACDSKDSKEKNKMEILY
- Assay Notes: ELISA with prolonged wash, soluble Fab on coated huROR1-ECD
Metric: pKd
In textbook form, pKd equals minus log to base ten of the concentration in mol/L.

What does the data say about its pKd? Entry: Ab1 Fab variant H1 T32A + L1 A25P + L2 T69R (Fab, V domains shown, Fab) VH: QVQLQESGPGLVKPSQTLSLTCTVSGYAFAAYNIHWVRQAPGQGLEWMGSFDPYDGGSSYNQKFKDRLTISKDTSKNQVVLTMTNMDPVDTATYYCARGWYYFDYWGHGTLVTVSS VL: DIVMTQTPLSLPVTPGEPASISCRPSKSISKYLAWYQQKPGQAPRLLIYSGSRLQSGIPPRFSGSGYGTDFTLTINNIESEDAAYYFCQQHDESPYTFGEGTKVEIK
8.62

Here is the next binder: Ab1 Fab variant H1 T32A + L1 A25P + L2 Q71T (Fab, V domains shown, Fab) VH: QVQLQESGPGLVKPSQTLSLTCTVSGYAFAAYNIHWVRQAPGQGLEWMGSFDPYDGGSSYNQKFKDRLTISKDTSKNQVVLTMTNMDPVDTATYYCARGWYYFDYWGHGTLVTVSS VL: DIVMTQTPLSLPVTPGEPASISCRPSKSISKYLAWYQQKPGQAPRLLIYSGSTLTSGIPPRFSGSGYGTDFTLTINNIESEDAAYYFCQQHDESPYTFGEGTKVEIK
8.54

Here is the next binder: Ab1 Fab variant H1 T32A + L1 A25P + L2 L70K (Fab, V domains shown, Fab) VH: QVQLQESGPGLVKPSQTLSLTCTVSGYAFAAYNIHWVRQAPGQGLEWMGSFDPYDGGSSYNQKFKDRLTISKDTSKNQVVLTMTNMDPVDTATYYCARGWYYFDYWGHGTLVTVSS VL: DIVMTQTPLSLPVTPGEPASISCRPSKSISKYLAWYQQKPGQAPRLLIYSGSTKQSGIPPRFSGSGYGTDFTLTINNIESEDAAYYFCQQHDESPYTFGEGTKVEIK
8.68

Here is the next binder: Ab1 Fab variant H1 T32A + L1 A25P (Fab, V domains shown, Fab) VH: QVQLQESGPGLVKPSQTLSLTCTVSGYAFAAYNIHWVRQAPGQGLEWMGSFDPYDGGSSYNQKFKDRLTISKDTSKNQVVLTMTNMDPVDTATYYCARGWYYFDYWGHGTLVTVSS VL: DIVMTQTPLSLPVTPGEPASISCRPSKSISKYLAWYQQKPGQAPRLLIYSGSTLQSGIPPRFSGSGYGTDFTLTINNIESEDAAYYFCQQHDESPYTFGEGTKVEIK
8.74
